# assay system: Methionine--tRNA ligase (Staphylococcus aureus (strain Mu50 / ATCC 700699), UniProt P67578)
# Sequence (P67578 whole entry): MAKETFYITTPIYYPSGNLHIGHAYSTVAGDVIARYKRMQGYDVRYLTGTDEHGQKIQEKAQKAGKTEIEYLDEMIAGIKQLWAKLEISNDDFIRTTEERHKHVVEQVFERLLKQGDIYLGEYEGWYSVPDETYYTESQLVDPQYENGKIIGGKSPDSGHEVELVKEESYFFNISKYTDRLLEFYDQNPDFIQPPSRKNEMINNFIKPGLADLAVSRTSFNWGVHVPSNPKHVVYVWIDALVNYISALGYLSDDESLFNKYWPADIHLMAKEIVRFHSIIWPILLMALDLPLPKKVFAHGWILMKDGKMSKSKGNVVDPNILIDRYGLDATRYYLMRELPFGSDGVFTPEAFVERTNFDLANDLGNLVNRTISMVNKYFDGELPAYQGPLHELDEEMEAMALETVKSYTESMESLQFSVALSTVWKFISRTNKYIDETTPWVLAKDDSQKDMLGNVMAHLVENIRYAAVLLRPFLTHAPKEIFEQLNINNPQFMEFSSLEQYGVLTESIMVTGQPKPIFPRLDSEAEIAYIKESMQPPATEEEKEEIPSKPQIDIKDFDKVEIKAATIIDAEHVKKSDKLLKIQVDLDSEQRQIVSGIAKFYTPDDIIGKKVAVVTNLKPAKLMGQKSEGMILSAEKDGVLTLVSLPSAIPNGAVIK
# experiment summary: Binding affinity to Staphylococcus aureus MetRS expressed in Escherichia coli BL21(DE3) cells assessed as dissociation constant in presence of 50 uM ATP by ITC analysis
readout label: Kd (nM)
Output spec: scalar in nM, unitless text.

[
  {
    "smiles str": "[H]/N=C(/NCCCCN/C(=N/[H])N/C(=N/[H])Nc1ccc(Cl)cc1)N/C(=N/[H])Nc1ccc(Cl)cc1",
    "readout label": "Kd",
    "result units": "nM",
    "value reported": 493
  }
]

// switching to the query molecule
Query: Requested field: Kd. Item: [H]/N=C(\N/C(=N/[H])NCCCCCCNC(=N)NC(=N)Nc1ccc(Cl)cc1)Nc1ccc(Cl)cc1
Response: 1210
